Test system: HaCaT (human keratinocyte) cells
Assay: MTS cytotoxicity assay, HaCaT negative control cells
Format: cell-based
Settings: MTS method, 72 h incubation

| compound | IC50 |
| --- | --- |
| C=C[C@H]1C[C@@H](C)C[C@@H](C)[C@@H]1c1c(O)ccn(O)c1=O | > 47.5 µM |
| CC12COC(c3ccccc3)OC1CCC1(C)C2CCC2CC3CC21CCC3(O)CO (stereo not drawn) | 42.6 µM |
| CC(=O)O[C@H]1C(=O)[C@@]2(C)[C@H]([C@H](OC(=O)c3ccccc3)[C@]3(O)C[C@H](OC(=O)[C@H](O)[C@@H](NC(=O)c4ccccc4)c4ccccc4)C(C)=C1C3(C)C)[C@]1(OC(C)=O)CO[C@@H]1C[C@@H]2O [paclitaxel, reference compound] | 0.024 µM |
| C[C@@]1(CO)[C@H](O)CC[C@@]2(C)[C@H]1CC[C@H]1C[C@@H]3C[C@@]12CC[C@]3(O)CO | 10.4 µM |
| COc1cc(=O)oc(C(C)[C@H](C)O)c1C (stereo partly drawn) | > 100 µM |
| CC(=O)OC[C@@]1(O)CC[C@]23C[C@H]1C[C@@H]2CC[C@H]1[C@](C)(CO)[C@H](O)CC[C@@]13C [Compound 5, aphidicolin-17-monoacetate] | 8 µM |

* * *

Catalogue of log10(IC50) readings, one per entry.
Tested on: CNE1-LMP1 stable oncoprotein LMP1 integrated nasopharyngeal carcinoma cells
Experiment: MTS cytotoxicity assay, CNE1-LMP1
Type: cell-based
Conditions: Homo sapiens, MTS method, 72 h incubation
readoutType: log10(IC50) (log10 of the value in µM)

| molecule | log10(IC50) |
| --- | --- |
| CC(=O)OC[C@@]1(O)CC[C@]23C[C@H]1C[C@@H]2CC[C@H]1[C@](C)(CO)[C@H](O)CC[C@@]13C [Compound 5, aphidicolin-17-monoacetate] | 0.60 |
| CC12COC(c3ccccc3)OC1CCC1(C)C2CCC2CC3CC21CCC3(O)CO (stereo not drawn) | 1.55 |
| CC(=O)O[C@H]1C(=O)[C@@]2(C)[C@H]([C@H](OC(=O)c3ccccc3)[C@]3(O)C[C@H](OC(=O)[C@H](O)[C@@H](NC(=O)c4ccccc4)c4ccccc4)C(C)=C1C3(C)C)[C@]1(OC(C)=O)CO[C@@H]1C[C@@H]2O [paclitaxel, reference compound] | -2.38 |
| C=C[C@H]1C[C@@H](C)C[C@@H](C)[C@@H]1c1c(O)ccn(O)c1=O | -0.70 |
| C[C@@]1(CO)[C@H](O)CC[C@@]2(C)[C@H]1CC[C@H]1C[C@@H]3C[C@@]12CC[C@]3(O)CO | 0.49 |
